- System: Pseudomonas aeruginosa
- protocol_text: Antibacterial activity against Pseudomonas aeruginosa ATCC 27853 after 24 hrs by MTT assay
- Type: functional
- study_conditions: ATCC 27853, 24 h

| compound | assayed_system | comparison_sign | MIC [µg/mL] |
| --- | --- | --- | --- |
| Cc1ccc(C2=NN(c3nc(-c4ccccc4)cs3)C(c3ccco3)C2)cc1 (stereo unspecified) | Pseudomonas aeruginosa | = | 1.56 |
| O=C1CSC(N2N=C(c3ccc(Cl)c(Cl)c3)CC2c2cccs2)=N1 (stereo unspecified) | Pseudomonas aeruginosa | = | 12.5 |
| Cc1ccc(C2=NN(C3=NC(=O)CS3)C(c3ccccc3)C2)cc1 (stereo unspecified) | Pseudomonas aeruginosa | = | 12.5 |
| Clc1ccc(C2=NN(c3nc(-c4ccccc4)cs3)C(c3ccco3)C2)cc1Cl (stereo unspecified) | Pseudomonas aeruginosa | > | 50 |
| Fc1ccc(C2=NN(c3nc(-c4ccccc4)cs3)C(c3cccs3)C2)cc1 (stereo unspecified) | Pseudomonas aeruginosa | = | 12.5 |
| O=C1CSC(N2N=C(c3ccc(Br)cc3)CC2c2ccco2)=N1 (stereo unspecified) | Pseudomonas aeruginosa | = | 12.5 |
| Cc1ccc(C2=NN(c3nc(-c4ccccc4)cs3)C(c3ccccc3)C2)cc1 (stereo unspecified) | Pseudomonas aeruginosa | = | 12.5 |
| COc1ccc(-c2csc(N3N=C(c4ccc(Br)cc4)CC3c3ccco3)n2)cc1 (stereo unspecified) | Pseudomonas aeruginosa | = | 6.25 |
| COc1ccc(-c2csc(N3N=C(c4ccc(C)cc4)CC3c3cccs3)n2)cc1 (stereo unspecified) | Pseudomonas aeruginosa | = | 12.5 |
| Brc1ccc(C2=NN(c3nc(-c4ccccc4)cs3)C(c3ccco3)C2)cc1 (stereo unspecified) | Pseudomonas aeruginosa | = | 3.13 |
| O=C1CSC(N2N=C(c3ccc(F)cc3)CC2c2ccco2)=N1 (stereo unspecified) | Pseudomonas aeruginosa | = | 6.25 |
| Cc1ccc(C2=NN(C3=NC(=O)CS3)C(c3ccco3)C2)cc1 (stereo unspecified) | Pseudomonas aeruginosa | = | 6.25 |
| Fc1ccc(C2=NN(c3nc(-c4ccccc4)cs3)C(c3ccco3)C2)cc1 (stereo unspecified) | Pseudomonas aeruginosa | = | 12.5 |
| COc1ccc(C2=NN(C3=NC(=O)CS3)C(c3cccs3)C2)cc1 (stereo unspecified) | Pseudomonas aeruginosa | > | 50 |
| COc1ccc(C2=NN(c3nc(-c4ccc(OC)cc4)cs3)C(c3cccs3)C2)cc1 (stereo unspecified) | Pseudomonas aeruginosa | = | 12.5 |
| Brc1ccc(C2=NN(c3nc(-c4ccccc4)cs3)C(c3cccs3)C2)cc1 (stereo unspecified) | Pseudomonas aeruginosa | = | 12.5 |
| COc1ccc(-c2csc(N3N=C(c4ccc(F)cc4)CC3c3cccs3)n2)cc1 (stereo unspecified) | Pseudomonas aeruginosa | = | 12.5 |
| Clc1ccc(C2=NN(c3nc(-c4ccccc4)cs3)C(c3cccs3)C2)cc1Cl (stereo unspecified) | Pseudomonas aeruginosa | = | 12.5 |
| COc1ccc(-c2csc(N3N=C(c4ccc(Br)cc4)CC3c3cccs3)n2)cc1 (stereo unspecified) | Pseudomonas aeruginosa | = | 12.5 |
| O=C1CSC(N2N=C(c3ccc(Cl)c(Cl)c3)CC2c2ccco2)=N1 (stereo unspecified) | Pseudomonas aeruginosa | = | 12.5 |
| O=C1CSC(N2N=C(c3ccc(Br)cc3)CC2c2cccs2)=N1 (stereo unspecified) | Pseudomonas aeruginosa | = | 6.25 |

Reference for the values: ChEMBL document CHEMBL2046396
